Tested on: SF-268
Assay Protocol: NCI tumour cell line growth inhibition, 48 h
The source made the active and inactive calls. No stated cut-off is given here; in the data, active = GI50 up to about 1.1 µM and inactive = higher.
A correct response names exactly one class from active, inactive

Reference set, count: 5
O=C(O)c1oc(C(=O)O)c(C(=O)O)c1C(=O)O :: inactive
CN(C)CC(/C(Cc1ccccc1)=N\NC(=O)c1ccncc1)c1ccccc1 (stereo unspecified) :: inactive
O=C1c2ccccc2C(=O)N1CC1(C(=O)O)NCCS1(=O)=O (stereo unspecified) :: inactive
CC(=O)OCC(=O)[C@@]1(O)CC[C@H]2[C@@H]3C[C@H](C)C4=CC(=O)C=C[C@]4(C)[C@@]3(F)[C@@H](O)C[C@@]21C :: inactive
OC1c2ccccc2C(O)C2OC12 (stereo unspecified) :: inactive

[in] Field: outcome | Entry: COC(=O)C(CC(=O)Nc1ccc(Cl)c(Cl)c1)C(=O)C(=O)NC1C2CC3CC(C2)CC1C3 (stereo unspecified)
[out] inactive

[in] Field: outcome | Entry: CN(Cc1cnc2nc(N)nc(N)c2n1)c1ccc(C(=O)N[C@@H](CCS(=O)(=O)O)C(=O)O)cc1
[out] active

[in] Field: outcome | Entry: COC(=O)c1ccc(NC(=O)c2cc(OC)c(OC)c(OC)c2)cc1
[out] inactive

[in] Field: outcome | Entry: COc1ccc2c(c1)CCCN1Cc3ccccc3CC21 (stereo unspecified)
[out] inactive

[in] Field: outcome | Entry: CN(C)CCO/N=C1/C=C2CC[C@H]3[C@@H]4CC[C@H](O)[C@@]4(C)CC[C@@H]3[C@@]2(C)CC1
[out] inactive

[in] Field: outcome | Entry: Cc1nc2n(c1/C=C1/C(=O)Nc3cccc(Cl)c31)CCS2
[out] inactive

[in] Field: outcome | Entry: O=C(N[C@@H]1C=CCC[C@@H]1c1ccccc1)OCc1ccccc1
[out] inactive

[in] Field: outcome | Entry: COc1ccc(OCC(C)(C)O)cc1
[out] inactive

[in] Field: outcome | Entry: COc1ccc(/C=N/n2c(C)n[nH]c2=O)c(OC)c1
[out] inactive

[in] Field: outcome | Entry: CC1=NN2C(=N)/C(=C/c3ccc(F)cc3)C(=O)N=C2S1
[out] inactive

[in] Field: outcome | Entry: COc1cc(C2c3cc4c(cc3OC(NNC(N)=O)C2C)OCO4)cc(OC)c1OC (stereo unspecified)
[out] active

[in] Field: outcome | Entry: CC1=NC(=O)C(C)(c2ccccc2)N1CCc1ccccc1 (stereo unspecified)
[out] inactive

[in] Field: outcome | Entry: C(=C\Nc1ccc(Oc2ccccc2)cc1)/C=N/c1ccc(Oc2ccccc2)cc1
[out] inactive

[in] Field: outcome | Entry: N#CC1(c2nc3ccccc3o2)C(=O)C(=O)N(C2C3CC4CC(C3)CC2C4)C(=O)C1=O (stereo unspecified)
[out] inactive

[in] Field: outcome | Entry: CC(=O)[C@@]1(c2ccccc2)CC2(CCN(C)CC2)O[C@H]1C
[out] inactive

[in] Field: outcome | Entry: CCOC(=O)C1S/C(=N\c2ccccc2)N=C1C (stereo unspecified)
[out] inactive
